Tested on: SARS-CoV-2 (βCoV/Korea/KCDC/2020)
Assay: microbe, parasite or virus in culture
Type: cell-based
Settings: original SARS-CoV-2 strain, vero cells, immunofluorescence
OBSERVED PROPERTY: IC50 (µM)

INSERT INTO measurements (compound, test_system, observed_property, meas_value) VALUES
  ('CC(=O)C1=C(O)[C@]2(C)C(=CC1=O)Oc1c(C(C)=O)c(O)c(C)c(O)c12 [KU, potassium usnate]', 'SARS-CoV-2 (βCoV/Korea/KCDC/2020)', 'IC50', 7.57),
  ('CC(=O)C1=C(O)C=C2Oc3c(C(C)=O)c(O)c(C)c(O)c3[C@]2(C)C1=O [NaU, sodium usnate]', 'SARS-CoV-2 (βCoV/Korea/KCDC/2020)', 'IC50', 5.33);

###

System: vero cells
Details: vero cells, assay with original SARS-CoV-2 strain
OBSERVED PROPERTY: CC50

INSERT INTO assay_data (molecule, meas_value) VALUES
  ('CC(=O)C1=C(O)C=C2Oc3c(C(C)=O)c(O)c(C)c(O)c3[C@]2(C)C1=O [NaU, sodium usnate]', '> 50 µM'),
  ('CC(=O)C1=C(O)[C@]2(C)C(=CC1=O)Oc1c(C(C)=O)c(O)c(C)c(O)c12 [KU, potassium usnate]', '> 50 µM');

###

inhibition at 10 µM: recorded values
Test system: SARS-CoV-2 (βCoV/Korea/KCDC/2020)
Assay: microbe, parasite or virus in culture
Assay type: cell-based
Conditions: Severe acute respiratory syndrome coronavirus 2; single concentration 10 μM; read-out: Inhibition of infection (%)
OBSERVED PROPERTY: inhibition at 10 µM (%)

INSERT INTO results (molecule, observed_property, meas_value) VALUES
  ('CC(=O)c1c(O)c(C)c(O)c2c1OC1=CC(=O)C(C(C)=O)C(=O)[C@@]12C (single isomer, unassigned; (+)) [(+)-usnic acid]', 'inhibition at 10 µM', 61.6),
  ('C[C@]12C[C@@]34C=CC(=O)[C@@](C)(CCC(=O)Nc5c(O)ccc(C(=O)O)c5O)[C@@H]3[C@H](C[C@@H]1C4)O2', 'inhibition at 10 µM', 3.16),
  ('COC1=CC(=O)[C@@]2(C)c3c(O)c(C)c(O)c(C(C)=O)c3O[C@@]2(OC)C1', 'inhibition at 10 µM', 0.96),
  ('CO[C@H]1[C@H](O)[C@@H](O)[C@H](n2c3c(Cl)cccc3c3c4c(c5c6cccc(Cl)c6[nH]c5c32)C(=O)NC4=O)O[C@@H]1CO', 'inhibition at 10 µM', 10.6);

###

Tested on: SARS-CoV-2 (βCoV/Korea/KCDC/2020)
Assay: microbe, parasite or virus in culture
Assay type: cell-based
Conditions: Severe acute respiratory syndrome coronavirus 2; original SARS-CoV-2 strain, vero cells, immunofluorescence
pIC50: −log10 of the molar value.
pIC50: recorded values
OBSERVED PROPERTY: pIC50

INSERT INTO measurements (compound, meas_value) VALUES
  ('Cc1cccc(C)c1OCC(=O)N[C@@H](Cc1ccccc1)[C@@H](O)C[C@H](Cc1ccccc1)NC(=O)[C@H](C(C)C)N1CCCNC1=O', 4.93),
  ('CCC(CC)COC(=O)[C@H](C)N[P@](=O)(OC[C@H]1O[C@@](C#N)(c2ccc3c(N)ncnn23)[C@H](O)[C@@H]1O)Oc1ccccc1', 5.13),
  ('CCN(CC)CCCC(C)Nc1ccnc2cc(Cl)ccc12 (stereo not shown)', 4.94),
  ('CC(=O)c1c(O)c(C)c(O)c2c1OC1=CC(=O)C(C(C)=O)C(=O)[C@@]12C (single isomer, unassigned; (+)) [(+)-usnic acid]', 5.10);
